Listed here: items and their measured solubility at 24 h.
assay: Thermodynamic solubility (shake-flask); type: physicochemical; conditions: aqueous phosphate buffer pH 7.4, 24 hours, 25° C.
Supply the numeric figure in µM, leaving out any unit text.

COC[C@](C)(F)CN1[C@H](c2ccc(NC3CN(CCCF)C3)cc2OC)c2ccc3[nH]ncc3c2C[C@H]1C (single isomer, unassigned) [Example 15] = 821
CC(F)CN1[C@H](c2ccc(NC3CN(CCCF)C3)cn2)c2ccc3[nH]ncc3c2C[C@H]1C (single isomer, unassigned) [Example 66] = 931
COc1cc(NC2CN(CCCF)C2)ccc1[C@@H]1c2ccc3[nH]ncc3c2C[C@@H](C)N1CC(C)F (single isomer, unassigned) [Example 68] = 561

Inquiry: Any idea what its solubility at 24 h is? The compound is COC[C@](C)(F)CN1[C@H](c2ccc(OC3CN(CCCF)C3)cc2OC)c2ccc3[nH]ncc3c2C[C@H]1C (single isomer, unassigned) [Example 13]
Reply text: 78
